Target: recombinant sushi domain protein
Sequence (Q9Z0U4 29-158): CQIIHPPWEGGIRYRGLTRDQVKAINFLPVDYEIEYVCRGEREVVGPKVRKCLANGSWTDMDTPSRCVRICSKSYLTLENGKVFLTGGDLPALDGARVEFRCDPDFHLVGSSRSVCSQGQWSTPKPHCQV
Experiment: ITC; 100 μM hAJAP17 or 300 μM W183C peptide injected into 10 or 30 μM sushi domain protein in the cell; 25°C; 20 mM NaPi pH 7.4; one-site binding model
Measure: pKd
One number for each entry, as −log10 of the molar value.

Lab book: pKd of ETEFIAWGPTGDEEALE [hAJAP17] noted as 7.33

Value source: paper PMC11235169
